Source listed as patent US8048893B2.

Value Type: melting point (°C)

Compound | melting point (°C)
Cc1c(-c2ccccc2)c(O)nn1CCN1CCCCC1.Cl.Cl | 222
CC(Cn1cc(-c2ccccc2)c(O)n1)N(C)C.Cl.Cl (stereo not shown) | 189
CN1CCCC(Cn2cc(-c3ccccc3)c(O)n2)C1 (stereo not shown) | 132
CS(=O)(=O)Nc1nn(CCN2CCCCC2)cc1-c1ccccc1 | 121
NC(=O)c1ccccc1-c1cnn(CCN2CCCCC2)c1 | 168
